Experiment: refractive index (Na D-line) (dimensionless); xn = mol fraction of the nth substance listed
Settings: 288.15 K; 100.5 kPa; Liquid; Standard Abbe refractometry; x1 = 0.65
The following molecules are listed with their measured refractive index values.
outcomeMeasure: refractive index

molecule	reportedMeasurement
CCCC(=O)OCCC(C)C [3-methylbutyl butanoate] + CCO	1.40543
CCOC(=O)c1ccccc1 [ethyl benzoate] + CCO	1.48283
CC(=O)OCCC(C)C [3-methylbutyl ethanoate] + CCO	1.39595
CCCCCCCC(=O)OCC [ethyl octanoate] + CCO	1.41208
CCCCCC(=O)OCC [ethyl hexanoate] + CCO	1.4021
CCOC(=O)Cc1ccccc1 [ethyl phenylacetate] + CCO	1.47785

* * *

Test: xn = mol fraction of the nth substance listed
Conditions: 298.15 K, x1 = 0.45
The following molecules are listed with their measured surface tension liquid-gas values.

molecule	resultUnit	surface tension liquid-gas
CCCCCC(=O)OCC [ethyl hexanoate] + CCO	mN/m	24.3
CCCCCCCC(=O)OCC [ethyl octanoate] + CCO	mN/m	25.1
CCCC(=O)OCCC(C)C [3-methylbutyl butanoate] + CCO	mN/m	23.7
CCOC(=O)c1ccccc1 [ethyl benzoate] + CCO	mN/m	28.3
CC(=O)OCCC(C)C [3-methylbutyl ethanoate] + CCO	mN/m	23.2
CCOC(=O)Cc1ccccc1 [ethyl phenylacetate] + CCO	mN/m	27.9

* * *

The following molecules are listed with their measured refractive index values.
Experiment: refractive index (Na D-line) (dimensionless); xn = mol fraction of the nth substance listed
Details: 308.15 K; 100.5 kPa; Liquid; Standard Abbe refractometry; x1 = 0.6

molecule	refractive index
CC(=O)OCCC(C)C [3-methylbutyl ethanoate] + CCO	1.38545
CCCCCCCC(=O)OCC [ethyl octanoate] + CCO	1.40193
CCOC(=O)Cc1ccccc1 [ethyl phenylacetate] + CCO	1.46451
CCCC(=O)OCCC(C)C [3-methylbutyl butanoate] + CCO	1.39513

Source: the NIST ThermoML archive (doi:10.1021/je0601208)
